Target: human F508del CFTR (Homo sapiens, UniProt P13569, DEL508-508)
Construct: expressed in transfected cells
Sequence (P13569 with tags, fused parts or gaps DEL508-508): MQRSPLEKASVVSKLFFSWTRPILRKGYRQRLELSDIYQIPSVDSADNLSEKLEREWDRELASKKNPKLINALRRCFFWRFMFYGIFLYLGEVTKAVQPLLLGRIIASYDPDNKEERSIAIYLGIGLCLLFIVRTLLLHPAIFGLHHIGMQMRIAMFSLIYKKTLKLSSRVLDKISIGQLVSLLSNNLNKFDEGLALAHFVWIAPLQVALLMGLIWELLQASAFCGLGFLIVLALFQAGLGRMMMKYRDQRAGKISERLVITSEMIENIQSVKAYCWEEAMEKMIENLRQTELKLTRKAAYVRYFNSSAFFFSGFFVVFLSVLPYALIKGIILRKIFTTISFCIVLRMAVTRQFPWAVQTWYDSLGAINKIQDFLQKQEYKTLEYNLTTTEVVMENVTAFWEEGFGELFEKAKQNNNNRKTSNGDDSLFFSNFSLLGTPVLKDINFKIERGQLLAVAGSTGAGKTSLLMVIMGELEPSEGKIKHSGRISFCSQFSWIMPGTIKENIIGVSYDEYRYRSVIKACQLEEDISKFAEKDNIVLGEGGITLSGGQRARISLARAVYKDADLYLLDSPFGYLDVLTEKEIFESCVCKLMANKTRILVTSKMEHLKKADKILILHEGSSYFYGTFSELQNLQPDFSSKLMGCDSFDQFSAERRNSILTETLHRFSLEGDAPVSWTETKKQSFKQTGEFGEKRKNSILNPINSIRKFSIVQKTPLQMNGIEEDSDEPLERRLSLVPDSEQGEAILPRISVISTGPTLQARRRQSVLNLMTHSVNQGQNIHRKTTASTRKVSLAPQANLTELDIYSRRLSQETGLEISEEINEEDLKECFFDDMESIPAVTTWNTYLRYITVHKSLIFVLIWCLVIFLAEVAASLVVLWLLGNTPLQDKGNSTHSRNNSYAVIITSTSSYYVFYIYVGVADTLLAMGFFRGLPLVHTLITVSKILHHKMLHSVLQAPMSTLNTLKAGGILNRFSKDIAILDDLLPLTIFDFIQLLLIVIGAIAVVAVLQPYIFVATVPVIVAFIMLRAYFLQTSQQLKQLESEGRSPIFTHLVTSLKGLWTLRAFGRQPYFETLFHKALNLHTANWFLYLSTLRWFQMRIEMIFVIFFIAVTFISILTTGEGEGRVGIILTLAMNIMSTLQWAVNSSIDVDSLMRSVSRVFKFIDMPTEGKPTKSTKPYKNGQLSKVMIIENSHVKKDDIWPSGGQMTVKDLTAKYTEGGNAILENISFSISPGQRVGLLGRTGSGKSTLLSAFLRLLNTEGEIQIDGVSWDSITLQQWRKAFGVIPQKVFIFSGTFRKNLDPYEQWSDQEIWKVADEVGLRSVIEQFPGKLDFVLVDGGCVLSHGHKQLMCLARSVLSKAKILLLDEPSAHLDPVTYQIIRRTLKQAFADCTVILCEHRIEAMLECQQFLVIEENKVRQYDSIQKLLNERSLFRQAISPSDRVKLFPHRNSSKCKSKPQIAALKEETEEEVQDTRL
Assay: CFTR-YFP Assay, CFTR Corrector Protocol (YFP flux assay)
Assay type: cell-based
Details: normalized to the positive control, read-out: EMAX (% Efficacy, EMAX normalized to the positive control)
Measured Emax by item
endpoint: Emax

| compound | endpoint | measValue |
| --- | --- | --- |
| COc1ccc(S(=O)(=O)N2CCC(N(C(=O)c3ccccc3)c3ccccn3)CC2)cc1F [Example 171] | Emax | 10 to 30% |
| O=S(=O)(c1ccc2snc(Cl)c2c1)N1CCC(n2c(-c3ccncc3F)nc3cccnc32)CC1 [Example 158] | Emax | 10 to 30% |
| O=S(=O)(N1CCOCC1)N1CCC(n2c(-c3ccccc3)nc3cccnc32)CC1 [Example 67] | Emax | 10 to 30% |
| Cc1ccc(N(C2CCN(S(=O)(=O)c3ccc4nc(C)oc4c3)CC2)S(=O)(=O)c2ccccc2Cl)nc1 [Example 223] | Emax | 10 to 30% |
| O=S(=O)(c1ccc2c(c1)OC(F)(F)O2)N1CCC(n2c(-c3ccccc3)cc3cccnc32)CC1 [Example 99] | Emax | 30 to 80% |
| Cc1ccc2nc(-c3ccc(F)cc3)n(C3CCN(S(=O)(=O)c4ccc5c(c4)OC(F)(F)O5)CC3)c2n1 [Example 84] | Emax | 30 to 80% |
| COc1ccc(S(=O)(=O)N2CCC(n3c(-c4ccccc4Cl)nc4cccnc43)CC2)cc1F [Example 60] | Emax | 30 to 80% |
| CCc1ccc(S(=O)(=O)N2CCC(n3c(-c4ccncc4Cl)nc4cc(O)ccc43)CC2)cc1 [Example 168] | Emax | 30 to 80% |
| CC(C)c1ccc(S(=O)(=O)N2CCC(n3c(-c4ccccc4)nc4cccnc43)CC2)cc1 [Example 69] | Emax | 10 to 30% |

====

Measured Emax by item
Biological target: human F508del CFTR (Homo sapiens, UniProt P13569, DEL508-508)
Construct: expressed in transfected cells
Test: CFTR-YFP Assay, CFTR Corrector Protocol (YFP flux assay)
Type: cell-based
Conditions: normalized to the positive control, read-out: EMAX (% Efficacy, EMAX normalized to the positive control)
endpoint: Emax

| compound | measValue |
| --- | --- |
| COc1ccc(S(=O)(=O)N2CCC(N(C(=O)c3ccccc3Cl)c3ccccn3)CC2)cc1F [Example 203] | 1% |
| CCc1ccc(S(=O)(=O)N2CCC(N(c3cc(Cl)ccn3)S(=O)(=O)c3ccccc3Cl)CC2)cc1 [Example 233] | 30 to 80% |
| COc1ccc(S(=O)(=O)N2CCC(n3c(-c4cccnc4Cl)nc4cccnc43)CC2)cc1Cl [Example 88] | 30 to 80% |
| COc1ccc(S(=O)(=O)N2CCC(n3c(-c4ccc(C(F)(F)F)cc4)nc4cccnc43)CC2)cc1Cl [Example 78] | 10 to 30% |
| O=S(=O)(c1ccc2c(c1)OCO2)N1CCC(n2c(-c3ccc(F)nc3F)nc3cccnc32)CC1 [Example 105] | 30 to 80% |
| COc1ccc(S(=O)(=O)N2CCC(n3c(-c4ccccc4)nc4ccccc43)CC2)cc1Cl [Example 81] | 30 to 80% |
| COc1ccc2c(c1)nc(-c1ccncc1Cl)n2C1CCN(S(=O)(=O)c2ccc3nc(C)oc3c2)CC1 [Example 160] | 30 to 80% |
| COc1ccc(S(=O)(=O)N2CCC(n3c(-c4ccccc4)nc4cccnc43)CC2)cc1C(F)(F)F [Example 74] | 30 to 80% |
| CCc1ccc(S(=O)(=O)N2CCC(n3c(-c4ccccc4Cl)nc4cc(O)ccc43)CC2)cc1 [Example 167] | 10 to 30% |
| CCc1ccc(S(=O)(=O)N2CCC(n3c(-c4ccccc4Cl)nc4cc(OC)ccc43)CC2)cc1 [Example 155] | 30 to 80% |
| CCc1ccc(S(=O)(=O)N2CCC(N(c3ccccn3)S(=O)(=O)c3ccccc3C)CC2)cc1 [Example 225] | 10 to 30% |
| CCc1ccc(S(=O)(=O)N2CCC(N(C(=S)c3ccccc3Cl)c3ccccc3)CC2)cc1 [Example 213] | 10 to 30% |
| CCc1ccc(S(=O)(=O)N2CCC(N(C(=O)c3ccccc3Cl)c3cccc(C)n3)CC2)cc1 [Example 201] | 30 to 80% |
| CCc1ccc(S(=O)(=O)N2CCC(N(c3ncccn3)S(=O)(=O)c3ccccc3Cl)CC2)cc1 [Example 242] | 10 to 30% |
| COc1ccc2nc(-c3ccncc3Cl)n(C3CCN(S(=O)(=O)c4ccc(OC)c(Cl)c4)CC3)c2n1 [Example 58] | 10 to 30% |
| CCc1ccc(S(=O)(=O)N2CCC(N(C(=S)c3ccccc3Cl)c3ccc4c(c3)OC(F)(F)O4)CC2)cc1 [Example 212] | 30 to 80% |
| O=S(=O)(c1ccc2snc(Cl)c2c1)N1CCC(n2c(-c3ccc(F)cc3F)nc3cccnc32)CC1 [Example 159] | 10 to 30% |
| CCc1ccc(S(=O)(=O)N2CCC(N(C(=S)c3ccccc3Cl)c3ccc(OC)cc3)CC2)cc1 [Example 211] | 30 to 80% |
| O=S(=O)(c1cccc(OC(F)F)c1)N1CCC(n2c(-c3ccncc3Cl)nc3cccnc32)CC1 [Example 94] | 10 to 30% |
| CCc1ccc(S(=O)(=O)N2CCC(N(c3ccc(C)cn3)S(=O)(=O)c3ccccc3Cl)CC2)cc1 [Example 227] | 10 to 30% |

Where do these numbers come from? They come from patent US9944603B2.
